Tested on: Human Oral Mucosa Explant Tissues
Experimental protocol: Effect of final gel pH on anthocyanin uptake into human oral mucosa explant tissues
Format: in vitro ADME
Study conditions: explant sample 004; 10% w/w FBR gel
Attribute measured: Anthocyanin uptake, Gel pH 6.5 (pmol per mg tissue)
Please respond with the number in pmol per mg tissue and leave the unit unwritten.

Completed entries (count: 3):
CC1OC(OCC2OC(Oc3cc4c(O)cc(O)cc4[o+]c3-c3ccc(O)c(O)c3)C(OC3OCC(O)C(O)C3O)C(O)C2O)C(O)C(O)C1O (stereo not shown) [cyanidin 3-xylosylrutinoside]    1.3
C[C@@H]1O[C@@H](OC[C@H]2O[C@@H](Oc3cc4c(O)cc(O)cc4[o+]c3-c3ccc(O)c(O)c3)[C@H](O)[C@@H](O)[C@@H]2O)[C@H](O)[C@H](O)[C@H]1O [cyanidin 3-rutinoside]    9.4
OC[C@H]1O[C@@H](Oc2cc3c(O)cc(O)cc3[o+]c2-c2ccc(O)c(O)c2)[C@H](O[C@@H]2OC[C@@H](O)[C@H](O)[C@H]2O)[C@@H](O)[C@@H]1O.[Cl-] [Cyanidin 3-sambubioside, cyanidin 3-sambubioside]    0.4

As a next step, examine the compound that follows.
Query: Kindly indicate its recorded Anthocyanin uptake, Gel pH 6.5. Item: OC[C@H]1O[C@@H](Oc2cc3c(O)cc(O)cc3[o+]c2-c2ccc(O)c(O)c2)[C@H](O)[C@@H](O)[C@@H]1O [cyanidin 3-glucoside]
Reply: 12.0
